parameter: melting point

In the examples that follow, each entry is paired with its recorded melting point.
Cc1cc(CN(C(=O)Nc2ccc(C(=O)O)cc2)c2ccc3c(c2)C(C)(C)CCC3(C)C)no1    188 to 193 °C
COc1ccc2c(c1)Sc1cc(OC)c(Cl)cc1C(O)C2 (stereo not given)    105 to 106 °C
COc1ccc(C)cc1NC(=O)Nc1ccc(N2CCN(C(=O)C3CCCCC3C)CC2)cc1 (stereo not given)    208 to 209 °C
CC(C)c1ccc(/C=C/C(=O)/C=C/c2ccccc2)cc1    76 to 78 °C

// moving on: another record for melting point
Name the reported melting point value associated with the molecule `CCOc1ccc(-c2nc(CCC(=O)c3ccccc3C#N)cs2)cc1OCC`
114 to 115 °C

###

Entries and their melting point

In the examples that follow, each entry is paired with its recorded melting point.
CCOC(=O)C=N[C@@H]1c2cc(C#N)ccc2OC(C)(C)[C@H]1O (relative stereo)    98 to 100 °C
CC#CCOc1cc(Cc2cccc(F)c2)ncn1    51.5 °C
NC1CC2c3ccccc3Cc3ccccc3N2C1=O (stereo not given)    186 to 188 °C
C/C(=C\c1ccc(C(=O)O)cc1)c1ccc2c(c1)C(C)(C)C(=O)CC2(C)C    260 to 261 °C
COc1cc2c(cc1F)CCC2=O    152 to 154 °C

// moving on: another record for melting point
Name the reported melting point value associated with the compound `COc1cc(OC)c(-c2cccnc2)cc1/C=C/C(=O)c1ccc(S(N)(=O)=O)cc1`
253 to 255 °C

###

Entries and their melting point

In the examples that follow, each entry is paired with its recorded melting point.
O=C(CN1CCOCC1)N[C@@H](Cc1cccc2ccccc12)C(=O)O    100 to 103 °C
NC(CCCCNC(=O)OCc1ccccc1)C(=O)N(Cc1ccccc1)Cc1ccccc1 (centres undefined)    135 to 136 °C
Cc1nc(-n2ccc(OCc3ccccc3)cc2=O)sc1C(=O)NCc1cccnc1    208 to 209 °C

// moving on: another record for melting point
Name the reported melting point value associated with the compound `CC(=O)Nc1cccc(-c2nc(=O)c3ccccc3s2)c1`
241 to 242 °C

###

parameter: melting point

In the examples that follow, each entry is paired with its recorded melting point.
CN(C(N)=O)c1nc(Cl)nc(Cl)n1    172 to 174 °C
COc1cc2c(cc1Nc1ncc(Cl)c(N[C@H]3[C@@H](C(N)=O)[C@@H]4C=C[C@H]3C4)n1)CCN(CC(=O)N(C)C)CC2    109 to 127 °C
O=C(Nc1cc(S(=O)(=O)NC(CO)CO)sc1Cl)c1cnn2c(C(F)F)cc(-c3ccc(C(F)(F)F)cc3)nc12    241 °C
COc1cc(OC)c2cc(C(=O)c3ccccc3)c(=O)oc2c1    178 to 179 °C
COCC(C)Oc1cc(-n2c(=O)cc(C(F)(F)F)n(C)c2=O)c(F)cc1Cl (stereo unspecified)    80 to 82 °C

// moving on: another record for melting point
Name the reported melting point value associated with the molecule `COc1cc(OC)c2c(C)c(CCN3CCN(c4ccccc4)CC3)c(=O)oc2c1`
112 to 114 °C

###

parameter: melting point

O=C(O)C1c2cccnc2NN1C(=O)O (stereo unspecified)    270 to 285 °C
Cc1c(NC(=O)NCCCO)c(C)c2c(c1-c1ccccc1)OCC2c1ccc(C(C)C)cc1 (stereo unspecified)    145 to 146 °C
Cn1c(CC#N)ccc1C(=O)c1ccc(Br)cc1    139 to 141 °C
CC(O)c1cc([N+](=O)[O-])ccc1F (stereo unspecified)    < 50 °C
Cc1cc(=O)n2ncn(N)c2n1    202 to 204 °C
CC(C)n1nc(-c2sc(NCc3ccccc3)nc2-c2ccccc2)ccc1=O    157 to 158 °C
C=CCN1CCC23c4c5ccc(O)c4OC2C(=NO)CCC3(O)C1C5 (stereo unspecified)    119 °C
Nc1c(Br)cnn1-c1c(Cl)ccc(Cl)c1Cl    129 °C
Cc1nnc2nc(-c3ccccc3)ccn12    303 to 306 °C
O=C1Nc2cc(Cl)ccc2C(=O)C1c1ccccn1 (stereo unspecified)    > 330 °C

// moving on: another record for melting point
Name the reported melting point value associated with the compound `CCN1Cc2c(cc3ccc4c(c3c2-c2ccc3c(c2)OCO3)OCO4)C1=O`
210 to 212 °C
